Quick reference: Kd of the listed items.
- target_under_test: T1, hIL-18Rα ECD-Fc fusion protein (human, UniProt Q13478 22-329)
- T1 construct: extracellular domain; captured on Protein A sensor
- T1 sequence (looked up): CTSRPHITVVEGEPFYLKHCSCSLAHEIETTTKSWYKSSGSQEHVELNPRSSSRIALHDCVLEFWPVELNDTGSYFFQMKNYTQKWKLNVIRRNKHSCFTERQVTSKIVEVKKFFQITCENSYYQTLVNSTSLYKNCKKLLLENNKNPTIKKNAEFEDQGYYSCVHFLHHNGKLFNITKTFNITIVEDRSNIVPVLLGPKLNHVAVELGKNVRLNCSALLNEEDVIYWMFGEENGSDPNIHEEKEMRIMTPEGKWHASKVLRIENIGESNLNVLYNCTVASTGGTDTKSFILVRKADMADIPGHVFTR
- assay_notes: BLI (Octet RED96), hIL-18Rα ECD-Fc on Protein A sensor

[
  {
    "binder": "IL-18 variant polypeptide M14 (ligand) YFNKLKSKLSVIRNLNDQVLFIDQGNRPLFEDMTDSDCRDNAPRTIFIISMYKPSSSRGMAVTISVKCEKISTLSCENKIISFKEMNPPDRIKDTKSDIIFFQASVPGHDNKMQFESSSYEGYFLACEKERDLFKLILKKEDELGDRSIMFTVQNED",
    "Kd / nM": 23.6
  },
  {
    "binder": "IL-18 variant polypeptide M35 (ligand) YFPKLRSKLSVIRNLNDQVLFIDQGNRPLFEDMTDSDCRDNAPRTIFIISMYKGSGARGMAVTISVKCEKISTLSCENKIISFKEMNPPDGIKDTKSDIIFFQRSVPGHDNKMQFESSSYEGYFLACEKERDLFKLILKKEDELGDRSIMFTVQNED",
    "Kd / nM": 34.1
  },
  {
    "binder": "IL-18 variant polypeptide LM5 (ligand, soluble, E. coli-made) YFGKLRSKLSVIRNLNDQVLFIDQGNRPLFEDMTDSDCRDNAPRTIFIISMYKWSSQRGMAVTISVKCEKISTLSCENKIISFKEMNPPDNIKDTKSDIIFFQRSVPGHDNKMQFESSSYEGYFLACEKERDLFKLILKKEDELGDRSIMFTVQNED",
    "Kd / nM": 19.6
  },
  {
    "binder": "IL-18 variant polypeptide M34 (ligand) YFPKLRSKLSVIRNLNDQVLFIDQGNRPLFEDMTDSDCRDNAPRTIFIISMYKHSRNRGMAVTISVKCEKISTLSCENKIISFKEMNPPDVIKDTKSDIIFFQESVPGHDNKMQFESSSYEGYFLACEKERDLFKLILKKEDELGDRSIMFTVQNED",
    "Kd / nM": 32.8
  },
  {
    "binder": "IL-18 variant polypeptide M11 (ligand) YFPKLRSKLSVIRNLNDQVLFIDQGNRPLFEDMTDSDCRDNAPRTIFIISMYKSSRNRGMAVTISVKCEKISTLSCENKIISFKEMNPPDGIKDTKSDIIFFQTSVPGHDNKMQFESSSYEGYFLACEKERDLFKLILKKEDELGDRSIMFTVQNED",
    "Kd / nM": 68.2
  },
  {
    "binder": "IL-18 variant polypeptide M3 (ligand) YFPKLKSKLSVIRNLNDQVLFIDQGNRPLFEDMTDSDCRDNAPRTIFIISMYKWSHVRGMAVTISVKCEKISTLSCENKIISFKEMNPPDAIKDTKSDIIFFQYSVPGHDNKMQFESSSYEGYFLACEKERDLFKLILKKEDELGDRSIMFTVQNED",
    "Kd / nM": 2140
  },
  {
    "binder": "IL-18 variant polypeptide M9 (ligand) YFPKLRSKLSVIRNLNDQVLFIDQGNRPLFEDMTDSDCRDNAPRTIFIISMYKWSRARGMAVTISVKCEKISTLSCENKIISFKEMNPPDSIKDTKSDIIFFQSSVPGHDNKMQFESSSYEGYFLACEKERDLFKLILKKEDELGDRSIMFTVQNED",
    "Kd / nM": 4.88
  }
]
